target: MOR (Homo sapiens, UniProt P35372); experiment: cell-based; parameters: host or cells: CHO-K1 OPRM1 β-arrestin-2 cells
Sequence (P35372 whole entry): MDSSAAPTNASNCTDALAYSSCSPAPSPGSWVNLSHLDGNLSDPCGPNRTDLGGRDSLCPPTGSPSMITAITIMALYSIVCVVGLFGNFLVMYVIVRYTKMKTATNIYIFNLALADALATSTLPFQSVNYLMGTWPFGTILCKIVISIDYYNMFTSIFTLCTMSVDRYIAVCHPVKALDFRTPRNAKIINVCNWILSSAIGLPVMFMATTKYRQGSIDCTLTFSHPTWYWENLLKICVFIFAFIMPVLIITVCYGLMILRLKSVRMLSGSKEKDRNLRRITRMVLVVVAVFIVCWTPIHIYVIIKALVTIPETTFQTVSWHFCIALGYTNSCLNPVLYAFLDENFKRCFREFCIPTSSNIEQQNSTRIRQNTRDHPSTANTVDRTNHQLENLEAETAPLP
Sequence (P32121 whole entry partner): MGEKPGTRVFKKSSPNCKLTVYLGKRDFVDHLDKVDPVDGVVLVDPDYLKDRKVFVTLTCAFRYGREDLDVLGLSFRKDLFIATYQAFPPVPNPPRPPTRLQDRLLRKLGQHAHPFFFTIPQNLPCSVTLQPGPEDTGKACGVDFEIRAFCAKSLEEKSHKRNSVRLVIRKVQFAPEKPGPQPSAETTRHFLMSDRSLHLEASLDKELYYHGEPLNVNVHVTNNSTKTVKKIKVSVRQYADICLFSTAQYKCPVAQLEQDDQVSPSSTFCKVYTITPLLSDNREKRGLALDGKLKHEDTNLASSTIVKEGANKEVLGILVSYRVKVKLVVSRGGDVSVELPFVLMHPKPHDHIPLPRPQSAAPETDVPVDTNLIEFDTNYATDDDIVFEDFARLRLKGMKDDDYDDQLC
Kindly state Bias Factor for each of the entries shown.

Qu. Please state recorded Bias Factor (tested on MOR (Homo sapiens, UniProt P35372)) of COC(=O)[C@@H]1C=C(OC(=O)c2ccc(C(N)=O)cc2)C(=O)[C@H]2[C@@]1(C)CC[C@H]1C(=O)O[C@H](c3ccoc3)C[C@]21C
Ans. 1.57

Qu. Reported Bias Factor for MOR (Homo sapiens, UniProt P35372), given COC(=O)[C@@H]1C=C(OC(=O)c2ccc3ccoc3c2)C(=O)[C@H]2[C@@]1(C)CC[C@H]1C(=O)O[C@H](c3ccoc3)C[C@]21C ?
Ans. 2.62

Qu. Write down the reported Bias Factor of COC(=O)[C@@H]1C=C(OC(=O)c2ccc3c(c2)CNC3=O)C(=O)[C@H]2[C@@]1(C)CC[C@H]1C(=O)O[C@H](c3ccoc3)C[C@]21C , test system: MOR (Homo sapiens, UniProt P35372).
Ans. 0.81
